These measurements were taken from the supplement of paper PMC9732359.

- protocol-description: protein stability index of a GFP-peptide fusion (yeast GPS) (PSI 1-4); higher = more stable; sorted into four equal gates, so the index is relative within each strain
- condition-description: ubr1∆
result-type: protein stability index
Lab note: jot down the number only; don't add units.

Here is how some sequences turned out for protein stability index.
Data request, read-out protein stability index, for IVTKDGVRKEFYELKRD [PRE7]
3.16

Data request, read-out protein stability index, for DPQHKAIRRDARYNWIC [RPL15A]
3.11

Data request, read-out protein stability index, for RLNKLNSNGIAMASLYL [SMD1]
2.67

Data request, read-out protein stability index, for ITLLPSSLKESSPDTMK [SNF12]
2.27

Data request, read-out protein stability index, for IHQNAGRLLRAMFEICL [BRR2]
2.83

Data request, read-out protein stability index, for RLECVKCKTRAQLTLKR [RPL42A]
2.54

Data request, read-out protein stability index, for SDRECPKCHSRENVFFQ [RPB9]
2.79

With those in mind, consider the next sequence.
Data request, read-out protein stability index, for VSEITKLKFFPSGEALI [RPN14]
3.18
